Test system: HT-22
Assay notes: Anti-ferroptotic activity against RSL3-induced ferroptosis in […] HT-22 cells assessed as cell viability measured after 24 hrs by MTT assay
Format: functional, cell-based
Condition notes: Mus musculus, HT-22, 24 h
Measure name: pEC50
Quick note: pEC50 means taking -log10 of the concentration in moles per liter.

INPUT: # lookup: pEC50 of "CCOC(=O)c1ccc(NC2CCCCC2)c(N)c1"
OUTPUT: 7.09

INPUT: # input compound: "CC1=C(C)C2=CC(=O)c3c(c(O)c4occ(C)c4c3O)[C@@]2(C)CC1" ; wanted: its pEC50
OUTPUT: 7.25

INPUT: Would you kindly share the measured pEC50 for "Cc1coc2c(O)c3c(c(O)c12)C(=O)C=C1[C@]3(C)CC[C@]2(C)O[C@]12C" ?
OUTPUT: 6.46

INPUT: Please look up its pEC50: "CC1=C(C)C2=CC(=O)c3c(c(O)c4oc(C)cc4c3O)[C@@]2(C)CC1"
OUTPUT: 6.28

INPUT: Record request: pEC50 value, item "CC1=C(C)C2=CC(=O)c3c(O)c4c(c(O)c3[C@@]2(C)CC1)OC[C@H]4C"
OUTPUT: 7.12

INPUT: What value of pEC50 has been recorded for this entry: "C[C@@H]1COc2c(O)c3c(c(O)c21)C(=O)C=C1[C@]3(C)CC[C@]2(C)O[C@]12C"
OUTPUT: 6.39

INPUT: Return reported pEC50; argument: "C=CCc1c(O)c2c(c(O)c1OC)[C@@]1(C)CCC(C)=C(C)C1=CC2=O"
OUTPUT: 6.51
